- Assayed Target: Bile salt export pump (Homo sapiens); further: assay procedure not described here
- Sequence (O95342 whole entry): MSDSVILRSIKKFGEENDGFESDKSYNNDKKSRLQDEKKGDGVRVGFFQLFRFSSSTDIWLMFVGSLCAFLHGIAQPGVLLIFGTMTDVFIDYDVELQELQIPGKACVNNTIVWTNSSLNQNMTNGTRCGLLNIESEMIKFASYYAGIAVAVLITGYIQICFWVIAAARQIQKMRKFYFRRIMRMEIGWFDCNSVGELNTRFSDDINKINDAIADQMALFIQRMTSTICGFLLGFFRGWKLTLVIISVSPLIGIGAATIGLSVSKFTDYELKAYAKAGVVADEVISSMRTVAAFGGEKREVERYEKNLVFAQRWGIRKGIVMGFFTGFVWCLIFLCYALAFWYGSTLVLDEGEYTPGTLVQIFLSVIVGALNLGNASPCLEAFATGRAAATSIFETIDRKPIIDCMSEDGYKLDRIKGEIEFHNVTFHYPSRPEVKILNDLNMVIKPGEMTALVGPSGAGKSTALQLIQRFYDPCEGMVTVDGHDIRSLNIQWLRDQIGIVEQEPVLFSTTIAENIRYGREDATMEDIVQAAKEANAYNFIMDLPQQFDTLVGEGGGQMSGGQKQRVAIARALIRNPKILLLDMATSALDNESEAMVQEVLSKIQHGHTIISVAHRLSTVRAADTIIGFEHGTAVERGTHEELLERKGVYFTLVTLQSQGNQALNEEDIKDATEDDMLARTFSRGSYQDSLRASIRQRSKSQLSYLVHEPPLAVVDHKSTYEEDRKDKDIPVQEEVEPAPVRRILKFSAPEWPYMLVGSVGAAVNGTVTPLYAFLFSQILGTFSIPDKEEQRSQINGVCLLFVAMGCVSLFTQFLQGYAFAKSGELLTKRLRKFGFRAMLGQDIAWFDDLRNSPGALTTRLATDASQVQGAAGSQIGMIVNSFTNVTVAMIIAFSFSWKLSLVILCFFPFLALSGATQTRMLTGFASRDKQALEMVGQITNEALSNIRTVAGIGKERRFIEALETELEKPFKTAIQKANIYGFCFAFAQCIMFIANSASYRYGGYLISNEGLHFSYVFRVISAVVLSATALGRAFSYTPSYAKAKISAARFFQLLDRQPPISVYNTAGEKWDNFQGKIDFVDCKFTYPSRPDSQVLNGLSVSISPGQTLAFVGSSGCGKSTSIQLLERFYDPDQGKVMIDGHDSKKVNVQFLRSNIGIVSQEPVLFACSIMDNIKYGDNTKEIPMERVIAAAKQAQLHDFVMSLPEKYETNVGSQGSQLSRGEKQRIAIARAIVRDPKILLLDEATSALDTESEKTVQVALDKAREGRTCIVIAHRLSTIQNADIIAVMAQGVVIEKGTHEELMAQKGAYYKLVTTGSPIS
- Assay type: functional

Molecule: CCc1nn(CCCN2CCN(c3cccc(Cl)c3)CC2)c(=O)n1CCOc1ccccc1
Inequality Operator: =
AC50 [µM]: 6

Molecule: O=C(O)c1cc(-c2ccc(F)cc2F)ccc1O
Inequality Operator: =
AC50 [µM]: 160

Molecule: CS(=O)(=O)c1ccc([C@@H](O)[C@@H](CO)NC(=O)C(Cl)Cl)cc1
Inequality Operator: >
AC50 [µM]: 300

Molecule: O=C(NC[C@H]1CN(c2ccc(N3CCOCC3=O)cc2)C(=O)O1)c1ccc(Cl)s1
Inequality Operator: =
AC50 [µM]: 100

Molecule: O=C1CC[C@@]2(O)[C@H]3Cc4ccc(O)c5c4[C@@]2(CCN3CC2CC2)[C@H]1O5 [NALTREXONE]
Inequality Operator: >
AC50 [µM]: 300

Molecule: COC(=O)N[C@H](C(=O)N[C@@H](Cc1ccccc1)[C@@H](O)CN(Cc1ccc(-c2ccccn2)cc1)NC(=O)[C@@H](NC(=O)OC)C(C)(C)C)C(C)(C)C
Inequality Operator: =
AC50 [µM]: 2

Molecule: NC(=O)c1cnccn1 [PYRAZINAMIDE]
Inequality Operator: >
AC50 [µM]: 300

Molecule: C#C[C@]1(O)CC[C@H]2[C@@H]3CCc4cc(O)ccc4[C@H]3CC[C@@]21C
Inequality Operator: =
AC50 [µM]: 38
